Consider the following compounds; for each one, report its inhibition.
test_target: Dual specificity tyrosine-phosphorylation-regulated kinase 1B (Homo sapiens);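 further: values are mean percent inhibition of DYRK1B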
experimental_context: at 0.1 µM
// note: answer is a bare numeric in %

Indicate its recorded inhibition; the compound in question is CN(C)c1ccc2c(c1)/C(=C/Nc1ccc(S(N)(=O)=O)cc1)C(=O)N2
4.54

Indicate its recorded inhibition; the compound in question is Nc1nccc(-c2c(-c3ccc(F)cc3)ncn2C2CCC(O)CC2)n1 (stereo not given)
3.71

Indicate its recorded inhibition; the compound in question is O=C(Nc1ccc(Oc2ccc3[nH]c(NC(=O)c4ccccc4)nc3c2)cc1)Nc1cc(C(F)(F)F)ccc1F
0.86

Indicate its recorded inhibition; the compound in question is CCc1cccc(CC)c1/C=C/c1cncc(C(=O)NC)c1
1.08

Indicate its recorded inhibition; the compound in question is c1ccc(-c2n[nH]cc2-c2ccnc(-c3ccc(OCCN4CCOCC4)cc3)c2)nc1
7.33

Indicate its recorded inhibition; the compound in question is N#Cc1ccc(Oc2nccc(-c3c(-c4ccc(F)cc4)ncn3C3CCNCC3)n2)cc1
-2.39

Indicate its recorded inhibition; the compound in question is COc1cc(C)c(N(C)C(=O)CN(C)C)cc1Nc1nc(Nc2cccc(F)c2C(N)=O)c2cc[nH]c2n1
-1.79

Indicate its recorded inhibition; the compound in question is O=C(NCC1CC1)c1ccc(-c2cccc(C(=O)NC3CC3)c2)cc1
0.66

Indicate its recorded inhibition; the compound in question is NC(=O)c1cc(-c2ccc(F)cc2)cc(-c2ccncc2)c1N
-0.78

Indicate its recorded inhibition; the compound in question is O=C1Nc2ccc(I)cc2C1=Cc1cc(Br)c(O)c(Br)c1
-0.26

====

test_target: Fibroblast growth factor receptor 2 (Homo sapiens) (UniProt P21802)
Sequence (P21802 22-821 limits assumed): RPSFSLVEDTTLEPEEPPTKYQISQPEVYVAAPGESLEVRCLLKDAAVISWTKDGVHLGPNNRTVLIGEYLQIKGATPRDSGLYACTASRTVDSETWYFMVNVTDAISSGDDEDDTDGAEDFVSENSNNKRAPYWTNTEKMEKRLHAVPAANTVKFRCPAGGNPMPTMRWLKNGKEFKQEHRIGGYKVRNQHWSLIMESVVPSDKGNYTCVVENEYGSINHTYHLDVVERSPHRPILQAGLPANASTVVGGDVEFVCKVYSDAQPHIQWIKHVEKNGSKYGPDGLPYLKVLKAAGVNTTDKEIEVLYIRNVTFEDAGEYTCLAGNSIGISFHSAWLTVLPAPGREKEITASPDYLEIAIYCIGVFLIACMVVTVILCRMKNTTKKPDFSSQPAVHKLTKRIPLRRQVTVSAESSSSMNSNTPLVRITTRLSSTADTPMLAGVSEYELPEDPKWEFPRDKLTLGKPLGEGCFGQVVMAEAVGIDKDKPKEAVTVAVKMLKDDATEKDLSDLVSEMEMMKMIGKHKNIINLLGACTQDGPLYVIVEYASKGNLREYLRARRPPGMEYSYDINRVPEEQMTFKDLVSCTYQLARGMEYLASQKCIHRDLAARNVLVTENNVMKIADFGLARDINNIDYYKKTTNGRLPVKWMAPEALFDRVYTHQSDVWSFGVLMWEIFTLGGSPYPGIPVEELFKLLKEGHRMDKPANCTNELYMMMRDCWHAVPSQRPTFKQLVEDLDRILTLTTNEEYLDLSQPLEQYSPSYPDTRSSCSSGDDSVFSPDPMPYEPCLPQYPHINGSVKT
experimental_context: at 0.1 µM
Consider the following compounds; for each one, report its inhibition.
// note: answer is a bare numeric in %

Name the recorded inhibition of CCC(=O)Nc1ccc(C)c(-c2ccc(C(=O)NCC3CC3)cc2)c1 , assay system Fibroblast growth factor receptor 2 (Homo sapiens) (UniProt P21802).
3.64

Name the recorded inhibition of COC(=O)Nc1nc2ccc(Sc3ccc(NC(=O)Nc4cc(C(F)(F)F)ccc4F)cc3)cc2[nH]1 , assay system Fibroblast growth factor receptor 2 (Homo sapiens) (UniProt P21802).
0.25

Name the recorded inhibition of NC(=O)Cc1ccccc1Oc1nccc(-c2c(-c3ccc(F)cc3)ncn2C2CCNCC2)n1 , assay system Fibroblast growth factor receptor 2 (Homo sapiens) (UniProt P21802).
1.69

Name the recorded inhibition of CS(=O)(=O)CCNCc1cc(-c2cc3c(Nc4ccc(OCc5cccc(F)c5)c(Cl)c4)ncnc3s2)cs1 , assay system Fibroblast growth factor receptor 2 (Homo sapiens) (UniProt P21802).
7.79

Name the recorded inhibition of NC(=O)c1cc(-c2ccc(F)cc2)cc(-c2ccncc2)c1N , assay system Fibroblast growth factor receptor 2 (Homo sapiens) (UniProt P21802).
1.81

Name the recorded inhibition of COc1cc(C)c(N(C)C(=O)CN(C)C)cc1Nc1nc(Nc2cccc(F)c2C(N)=O)c2cc[nH]c2n1 , assay system Fibroblast growth factor receptor 2 (Homo sapiens) (UniProt P21802).
-2.28

Name the recorded inhibition of NC(=O)c1cc(-c2ccncc2)cc(-c2ccccc2)c1N , assay system Fibroblast growth factor receptor 2 (Homo sapiens) (UniProt P21802).
5.47

Name the recorded inhibition of CCc1cccc(CC)c1/C=C/c1cncc(C(=O)NC)c1 , assay system Fibroblast growth factor receptor 2 (Homo sapiens) (UniProt P21802).
5.9

Name the recorded inhibition of O=C(NCC1CC1)c1ccc(-c2cccc(C(=O)NC3CC3)c2)cc1 , assay system Fibroblast growth factor receptor 2 (Homo sapiens) (UniProt P21802).
3.33

Name the recorded inhibition of COc1cc2ncn(-c3cc(OCc4ccccc4C(F)(F)F)c(C(C)=O)s3)c2cc1OC , assay system Fibroblast growth factor receptor 2 (Homo sapiens) (UniProt P21802).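 Further: values are mean percent inhibition of FGFR2 kinase, measured within the GSK Published Kinase Inhibitor Set (PKIS) screening panel.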
3.27

====

Test system: Receptor-type tyrosine-protein kinase FLT3 (Homo sapiens), P36888 [D835Y]
experimental_context: at 0.1 µM
Consider the following compounds; for each one, report its inhibition.
// note: answer is a bare numeric in %

Name the recorded inhibition of CN(c1ccc(NC(=O)Nc2c(Cl)cccc2Cl)cc1)c1ccnc(Nc2cccc(CS(C)(=O)=O)c2)n1 , assay system Receptor-type tyrosine-protein kinase FLT3 (Homo sapiens), P36888 [D835Y].
28.2

Name the recorded inhibition of CN(C)c1ccc2c(c1)/C(=C/Nc1ccc(S(N)(=O)=O)cc1)C(=O)N2 , assay system Receptor-type tyrosine-protein kinase FLT3 (Homo sapiens), P36888 [D835Y].
0.41

Name the recorded inhibition of COc1cc(C)c(N(C)C(=O)CN(C)C)cc1Nc1nc(Nc2cccc(F)c2C(N)=O)c2cc[nH]c2n1 , assay system Receptor-type tyrosine-protein kinase FLT3 (Homo sapiens), P36888 [D835Y].
0.68

Name the recorded inhibition of COc1cc(Nc2ncc3c(C)nc(-c4cccc(Oc5ccccc5)c4)n3n2)cc(OC)c1OC , assay system Receptor-type tyrosine-protein kinase FLT3 (Homo sapiens), P36888 [D835Y].
3.72

Name the recorded inhibition of CCS(=O)(=O)c1ccc(OC)c(Nc2ncc(-c3ccccc3Cl)o2)c1 , assay system Receptor-type tyrosine-protein kinase FLT3 (Homo sapiens), P36888 [D835Y].
7.14

Name the recorded inhibition of NCc1ccc(-n2c(-c3nonc3N)nc3cnccc32)cc1 , assay system Receptor-type tyrosine-protein kinase FLT3 (Homo sapiens), P36888 [D835Y].
-4.05

Name the recorded inhibition of COc1cc2ncn(-c3cc(OCCc4ccccc4)c(C(N)=O)s3)c2cc1OC , assay system Receptor-type tyrosine-protein kinase FLT3 (Homo sapiens), P36888 [D835Y].
0.74

Name the recorded inhibition of CCc1cccc(CC)c1/C=C/c1cncc(C(=O)NC)c1 , assay system Receptor-type tyrosine-protein kinase FLT3 (Homo sapiens), P36888 [D835Y].
2.46

Name the recorded inhibition of NC(=O)c1cc(-c2ccc(F)cc2)cc(-c2ccncc2)c1N , assay system Receptor-type tyrosine-protein kinase FLT3 (Homo sapiens), P36888 [D835Y].
-6.54

Name the recorded inhibition of COc1cc(Nc2ncc3c(C)nc(-c4cccc(C(F)(F)F)c4)n3n2)cc(OC)c1OC , assay system Receptor-type tyrosine-protein kinase FLT3 (Homo sapiens), P36888 [D835Y].
3.11

====

test_target: Proto-oncogene tyrosine-protein kinase receptor Ret (Homo sapiens) (UniProt P07949)
Sequence (P07949 whole entry): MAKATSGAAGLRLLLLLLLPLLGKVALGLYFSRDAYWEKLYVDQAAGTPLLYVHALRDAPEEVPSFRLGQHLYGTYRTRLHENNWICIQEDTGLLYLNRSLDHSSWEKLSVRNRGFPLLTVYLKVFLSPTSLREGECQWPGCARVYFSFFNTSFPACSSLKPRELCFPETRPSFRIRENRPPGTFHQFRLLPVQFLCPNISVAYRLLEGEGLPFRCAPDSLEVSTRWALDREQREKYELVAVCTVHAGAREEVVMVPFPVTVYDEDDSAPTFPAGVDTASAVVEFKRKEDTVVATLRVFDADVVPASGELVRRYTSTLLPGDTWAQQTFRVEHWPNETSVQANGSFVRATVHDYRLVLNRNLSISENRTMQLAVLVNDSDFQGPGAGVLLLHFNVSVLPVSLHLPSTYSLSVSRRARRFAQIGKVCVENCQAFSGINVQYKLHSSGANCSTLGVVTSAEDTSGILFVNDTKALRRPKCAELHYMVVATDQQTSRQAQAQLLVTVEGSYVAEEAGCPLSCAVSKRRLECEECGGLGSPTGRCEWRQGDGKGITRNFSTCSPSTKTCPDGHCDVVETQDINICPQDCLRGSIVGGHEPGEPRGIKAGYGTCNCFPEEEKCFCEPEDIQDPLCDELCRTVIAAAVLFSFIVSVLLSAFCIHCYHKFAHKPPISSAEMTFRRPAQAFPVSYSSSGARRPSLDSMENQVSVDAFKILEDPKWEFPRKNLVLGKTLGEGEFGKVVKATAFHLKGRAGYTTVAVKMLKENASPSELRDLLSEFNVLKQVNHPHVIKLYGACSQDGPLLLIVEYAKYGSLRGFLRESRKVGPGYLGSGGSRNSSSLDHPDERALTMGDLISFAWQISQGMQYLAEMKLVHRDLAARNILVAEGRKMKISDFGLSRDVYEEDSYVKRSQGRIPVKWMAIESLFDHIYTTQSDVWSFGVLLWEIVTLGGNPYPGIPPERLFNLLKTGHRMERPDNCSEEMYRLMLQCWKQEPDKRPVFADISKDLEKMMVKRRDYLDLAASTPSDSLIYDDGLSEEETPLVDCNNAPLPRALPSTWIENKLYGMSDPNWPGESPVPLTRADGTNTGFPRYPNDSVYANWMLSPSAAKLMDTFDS
experimental_context: at 1 µM
Consider the following compounds; for each one, report its inhibition.
// note: answer is a bare numeric in %

Name the recorded inhibition of COc1cccc(-n2cnc3c(N/N=C/c4ccncc4)ncnc32)c1 , assay system Proto-oncogene tyrosine-protein kinase receptor Ret (Homo sapiens) (UniProt P07949).
13.9

Name the recorded inhibition of O=C1Nc2ccc(I)cc2C1=Cc1cc(Br)c(O)c(Br)c1 , assay system Proto-oncogene tyrosine-protein kinase receptor Ret (Homo sapiens) (UniProt P07949).
7.84

Name the recorded inhibition of COc1ccc(C2=C(N3CCc4ccccc43)C(=O)NC2=O)cc1 , assay system Proto-oncogene tyrosine-protein kinase receptor Ret (Homo sapiens) (UniProt P07949).
6.15

Name the recorded inhibition of CCc1cccc(CC)c1/C=C/c1cncc(C(=O)NC)c1 , assay system Proto-oncogene tyrosine-protein kinase receptor Ret (Homo sapiens) (UniProt P07949).
7.18

Name the recorded inhibition of C#Cc1cccc(Nc2ncnc3ccc(OCCCCNCCS(C)(=O)=O)cc23)c1 , assay system Proto-oncogene tyrosine-protein kinase receptor Ret (Homo sapiens) (UniProt P07949).
18.9

Name the recorded inhibition of Cc1nnc(-c2ccc(C)c(-c3ccc(C(=O)NCc4ccc(Cl)cc4)cc3)c2)o1 , assay system Proto-oncogene tyrosine-protein kinase receptor Ret (Homo sapiens) (UniProt P07949).
2.3

Name the recorded inhibition of COc1ccc2ncn(-c3cc(O[C@H](C)c4ccccc4Cl)c(C(N)=O)s3)c2c1 , assay system Proto-oncogene tyrosine-protein kinase receptor Ret (Homo sapiens) (UniProt P07949).
9.64

Name the recorded inhibition of Fc1ccc(-c2c(-c3ccncc3)nc3n2CCS3)cc1 , assay system Proto-oncogene tyrosine-protein kinase receptor Ret (Homo sapiens) (UniProt P07949).
7.86

Name the recorded inhibition of CN(C)c1ccc2c(c1)/C(=C/Nc1ccc(S(N)(=O)=O)cc1)C(=O)N2 , assay system Proto-oncogene tyrosine-protein kinase receptor Ret (Homo sapiens) (UniProt P07949).
51.5

Name the recorded inhibition of C[C@@H](Oc1cc(-n2cnc3ccc(OC4CCN(C)CC4)cc32)sc1C(N)=O)c1ccccc1Cl , assay system Proto-oncogene tyrosine-protein kinase receptor Ret (Homo sapiens) (UniProt P07949).
16.5

Name the recorded inhibition of CNC(=O)c1cncc(/C=C/c2c(C)cccc2C)c1 , assay system Proto-oncogene tyrosine-protein kinase receptor Ret (Homo sapiens) (UniProt P07949).
7.32

Name the recorded inhibition of COc1cc(Nc2ncc(-c3ccccc3)o2)cc(OC)c1OC , assay system Proto-oncogene tyrosine-protein kinase receptor Ret (Homo sapiens) (UniProt P07949).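 Further: each listed value is an averaged inhibition figure.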
15.5

From: ChEMBL document CHEMBL1961873
